System tested: hERG potassium channels (Homo sapiens (Human))
Sequence (Q12809 whole entry): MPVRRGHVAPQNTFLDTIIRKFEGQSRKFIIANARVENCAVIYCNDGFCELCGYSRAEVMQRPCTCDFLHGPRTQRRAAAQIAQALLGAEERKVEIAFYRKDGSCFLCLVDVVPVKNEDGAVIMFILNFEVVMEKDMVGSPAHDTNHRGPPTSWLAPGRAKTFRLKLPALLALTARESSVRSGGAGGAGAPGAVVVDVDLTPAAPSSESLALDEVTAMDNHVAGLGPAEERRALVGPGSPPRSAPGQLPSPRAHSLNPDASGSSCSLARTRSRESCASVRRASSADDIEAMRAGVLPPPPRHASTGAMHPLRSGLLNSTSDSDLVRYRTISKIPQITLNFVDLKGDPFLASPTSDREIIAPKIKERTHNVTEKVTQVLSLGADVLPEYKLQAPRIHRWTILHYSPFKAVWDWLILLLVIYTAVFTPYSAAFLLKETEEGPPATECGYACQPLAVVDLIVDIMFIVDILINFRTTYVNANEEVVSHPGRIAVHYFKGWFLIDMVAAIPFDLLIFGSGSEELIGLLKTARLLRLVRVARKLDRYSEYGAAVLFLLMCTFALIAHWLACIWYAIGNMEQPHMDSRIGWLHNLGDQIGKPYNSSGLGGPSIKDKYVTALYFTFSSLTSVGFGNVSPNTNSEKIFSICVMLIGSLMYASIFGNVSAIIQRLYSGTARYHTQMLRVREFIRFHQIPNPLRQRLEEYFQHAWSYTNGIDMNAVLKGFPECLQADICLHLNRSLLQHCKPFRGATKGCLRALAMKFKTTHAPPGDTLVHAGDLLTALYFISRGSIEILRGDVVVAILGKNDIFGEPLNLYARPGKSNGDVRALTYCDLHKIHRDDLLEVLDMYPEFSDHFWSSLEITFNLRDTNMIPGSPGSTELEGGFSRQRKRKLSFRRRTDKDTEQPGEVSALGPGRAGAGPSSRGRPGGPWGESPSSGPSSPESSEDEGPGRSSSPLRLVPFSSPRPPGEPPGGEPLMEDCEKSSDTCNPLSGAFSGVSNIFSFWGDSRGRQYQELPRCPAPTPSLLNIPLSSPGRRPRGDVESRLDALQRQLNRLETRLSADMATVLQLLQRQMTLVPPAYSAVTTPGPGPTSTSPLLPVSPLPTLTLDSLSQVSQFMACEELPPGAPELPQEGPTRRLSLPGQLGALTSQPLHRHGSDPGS
Assay: Blocking of hERG potassium currents (automated patch clamp, HEK293-hERG)
pIC50: −log10 of the molar value.
Measured parameter: pIC50

{"columns": ["Compound", "System tested", "Recorded value"],
 "data": [
  ["[2H]C1([2H])Oc2cc3c(cc2O1)[C@@H](c1ccc(NC2CN(CCCF)C2)cn1)N(CC(F)(F)CO)[C@H](C)C3 [Compound 1]", "hERG potassium channels (Homo sapiens (Human))", "< 4.52"]
]}

###

System tested: CYP3A4 (Homo sapiens (Human))
Sequence (P08684 whole entry): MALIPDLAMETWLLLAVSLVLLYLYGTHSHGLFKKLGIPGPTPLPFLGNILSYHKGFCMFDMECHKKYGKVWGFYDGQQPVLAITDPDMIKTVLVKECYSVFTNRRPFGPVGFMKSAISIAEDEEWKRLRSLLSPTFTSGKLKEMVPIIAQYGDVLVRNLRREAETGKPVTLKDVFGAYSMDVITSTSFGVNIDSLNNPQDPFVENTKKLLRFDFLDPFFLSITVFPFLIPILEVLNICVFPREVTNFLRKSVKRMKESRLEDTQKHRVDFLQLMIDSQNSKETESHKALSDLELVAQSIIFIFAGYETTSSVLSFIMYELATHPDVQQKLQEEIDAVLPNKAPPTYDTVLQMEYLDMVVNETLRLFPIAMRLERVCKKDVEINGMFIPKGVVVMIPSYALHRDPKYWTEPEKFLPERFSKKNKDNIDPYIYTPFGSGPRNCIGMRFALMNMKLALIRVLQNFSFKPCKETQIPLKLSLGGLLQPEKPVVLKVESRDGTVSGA
Assay: Time-dependent inhibition of site of metabolism of testosterone in human liver microsome CYP3A4
Type: in vitro ADME
Experimental setup: testosterone site, pre-incubation with NADPH 30 min

{"columns": ["Smiles code", "System tested", "IC50"],
 "data": [
  ["[2H]C1([2H])Oc2cc3c(cc2O1)[C@@H](c1ccc(NC2CN(CCCF)C2)cn1)N(CC(F)(F)CO)[C@H](C)C3", "CYP3A4 (Homo sapiens (Human))", "> 30 µM"]
]}

###

System tested: CYP3A4 (Homo sapiens (Human))
Assay: Time-dependent inhibition of site of metabolism of midazolam in human liver microsome CYP3A4
Assay type: in vitro ADME
Experimental setup: pre-incubation with NADPH 30 min
Procedure: • 1. Phosphate buffer (20×PBS, purchased from Sangon); • 2. NADPH (ACROS, A2646-71-1); • 3. Human liver microsome (Corning Gentest, Cat No. 452161, Lot No. 9050002, Donor, 36); • 4. ABI QTrap 4000 LC-MS System (AB Sciex); • 5. ZORBAX Extend-C18, 3×50 mm, 3.5 m (Agilent, USA); • 6. […] The IC50 value of the drug for the site of metabolism of midazolam in CYP3A4 was calculated by Graphpad Prism and is shown in Table 7.
pIC50: −log10 of the molar value.

{"columns": ["Compound", "System tested", "pIC50"],
 "data": [
  ["[2H]C1([2H])Oc2cc3c(cc2O1)[C@@H](c1ccc(NC2CN(CCCF)C2)cn1)N(CC(F)(F)CO)[C@H](C)C3 [Compound 1]", "CYP3A4 (Homo sapiens (Human))", 4.88]
]}

###

System tested: ER (estrogen receptor) (Homo sapiens (Human), UniProt P03372)
Sequence (P03372 whole entry): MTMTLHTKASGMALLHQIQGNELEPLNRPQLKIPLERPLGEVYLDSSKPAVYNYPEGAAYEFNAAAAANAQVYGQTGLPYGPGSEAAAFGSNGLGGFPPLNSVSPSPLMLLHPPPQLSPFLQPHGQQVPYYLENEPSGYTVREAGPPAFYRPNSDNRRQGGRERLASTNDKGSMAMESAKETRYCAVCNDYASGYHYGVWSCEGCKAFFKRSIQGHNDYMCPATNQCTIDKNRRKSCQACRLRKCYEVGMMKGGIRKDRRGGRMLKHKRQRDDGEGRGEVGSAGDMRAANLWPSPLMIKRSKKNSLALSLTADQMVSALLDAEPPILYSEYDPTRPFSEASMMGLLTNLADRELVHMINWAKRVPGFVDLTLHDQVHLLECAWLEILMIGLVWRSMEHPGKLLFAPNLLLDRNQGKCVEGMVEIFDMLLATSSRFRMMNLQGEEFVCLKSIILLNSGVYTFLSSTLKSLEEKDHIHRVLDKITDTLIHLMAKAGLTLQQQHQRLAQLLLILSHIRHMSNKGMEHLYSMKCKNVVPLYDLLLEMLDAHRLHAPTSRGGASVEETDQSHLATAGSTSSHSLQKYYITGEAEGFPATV
Assay: Inhibition of binding of E to ER (MCF-7/ERE-luciferase reporter)
Experimental setup: MCF-7/ERE-luciferase cells, 0.1 nM estradiol, 24 h; read-out: IC50, inhibitory effect on the binding of E to ER

{"columns": ["Molecule", "IC50"],
 "data": [
  ["[2H]C1([2H])Oc2cc3c(cc2O1)[C@@H](c1ccc(NC2CN(CCCF)C2)cn1)N(CC(F)(F)CO)[C@H](C)C3 [Compound 1]", "0.69 nM"]
]}
